The origin of these recorded values is patent US8906906B2.

biological target: His6-tagged HIV-1 integrase / flag-LEDGF/p75 interaction (Human immunodeficiency virus type 1 group M subtype B, UniProt P04585); construct: His6-tagged HIV-1 integrase; assay: AlphaScreen assay of LEDGF-integrase interaction inhibition; conditions: compounds tested from 0.1 up to 100 μM

[
  {
    "compound": "CCCC(C(=O)O)c1c(C)nc(N2CCCC(c3nc(C(C)C)no3)C2)nc1-c1ccc(C)cc1 (stereo not drawn) [cpd 46]",
    "IC50 / µM": 80.8
  },
  {
    "compound": "CCCC(C(=O)O)c1c(C)nc(N2CCc3ccccc32)nc1-c1ccc(C)cc1 (stereo not drawn) [cpd 58]",
    "IC50 / µM": 17.9
  },
  {
    "compound": "CCCC(C(=O)O)c1c(C)nc(-c2ccccc2)nc1-c1ccc(Cl)cc1 (stereo not drawn) [cpd 102]",
    "IC50 / µM": 13.4
  },
  {
    "compound": "CCCC(C(=O)O)c1c(C)nc(-c2ccccc2)nc1N1CCc2ccccc2C1 (stereo not drawn) [cpd 76]",
    "IC50 / µM": 93
  },
  {
    "compound": "CCCC(C(=O)O)c1c(C)nc(-c2ccccc2)nc1-c1ccc(C)cc1O (stereo not drawn) [cpd 119]",
    "IC50 / µM": 21.9
  },
  {
    "compound": "CCCC(C(=O)O)c1c(C)nc(-c2ccccc2)nc1N1CCCCC1 (stereo not drawn) [cpd 60]",
    "IC50 / µM": 4.71
  },
  {
    "compound": "CCCC(C(=O)O)c1c(C)nc(-c2ccccc2)nc1Cc1ccccc1 (stereo not drawn) [cpd 117]",
    "IC50 / µM": 6.1
  },
  {
    "compound": "CCCC(C(=O)O)c1c(C)nc(N(C)C)nc1-c1ccccc1 (stereo not drawn) [cpd 2]",
    "IC50 / µM": 36.7
  },
  {
    "compound": "CCCC(C(=O)O)c1c(C)nc(N2CCCCC2)nc1-c1ccc(C)cc1C (stereo not drawn) [cpd 132]",
    "IC50 / µM": 22.9
  },
  {
    "compound": "CCCC(C(=O)O)c1c(C)nc(-c2ccccc2)nc1-c1ccc(C(F)(F)F)cc1 (stereo not drawn) [cpd 108]",
    "IC50 / µM": 100
  },
  {
    "compound": "CCCC(C(=O)O)c1c(C)nc(-c2ccccc2)nc1-c1ccc2sccc2c1 (stereo not drawn) [cpd 88]",
    "IC50 / µM": 66.7
  },
  {
    "compound": "CCCC(C(=O)O)c1c(C)nc(-c2ccccc2)nc1-c1ccc(Cl)cc1F (stereo not drawn) [cpd 94]",
    "IC50 / µM": 7.25
  },
  {
    "compound": "CCCC(C(=O)O)c1c(C)nc(N2CCCN(Cc3ccccc3)CC2)nc1-c1ccc(C)cc1 (stereo not drawn) [cpd 44]",
    "IC50 / µM": 11
  },
  {
    "compound": "CCCC(C(=O)O)c1c(C)nc(-c2ccccc2)nc1-c1ccc(Cl)cc1O (stereo not drawn) [cpd 111]",
    "IC50 / µM": 1.97
  },
  {
    "compound": "CCCC(C(=O)O)c1c(C)nc(N2CCCCC2)nc1-c1cc(F)c(F)cc1F (stereo not drawn) [cpd 142]",
    "IC50 / µM": 50.5
  },
  {
    "compound": "CCCC(C(=O)O)c1c(C)nc(N2CCCC(Oc3ccccc3)C2)nc1-c1ccc(C)cc1 (stereo not drawn) [cpd 48]",
    "IC50 / µM": 9.49
  },
  {
    "compound": "CCCC(C(=O)O)c1c(C)nc(N2CCCC(c3ccccc3)C2)nc1-c1ccc(C)cc1 (stereo not drawn) [cpd 50]",
    "IC50 / µM": 82.2
  },
  {
    "compound": "CCCC(C(=O)O)c1c(C)nc(/C=C/c2ccccc2)nc1-c1ccccc1 (stereo not drawn) [cpd 6]",
    "IC50 / µM": 45.6
  }
]
